target: FGFR1 (UniProt P11362); test: phosphorylation enrichment, bacterial display (enrichment ratio); higher = better substrate or ligand; peptides without Tyr show the background;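 also: 11-residue human phosphosite peptides and single-mutation variants displayed on the E. coli surface, counted by deep sequencing, each peptide's frequency after selection divided by its frequency in the unselected input library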;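 also: frequency after pTyr selection over input frequency; kinase dosed for 20-30% of maximal phosphorylation in three min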
Sequence (P11362 whole entry, looked up): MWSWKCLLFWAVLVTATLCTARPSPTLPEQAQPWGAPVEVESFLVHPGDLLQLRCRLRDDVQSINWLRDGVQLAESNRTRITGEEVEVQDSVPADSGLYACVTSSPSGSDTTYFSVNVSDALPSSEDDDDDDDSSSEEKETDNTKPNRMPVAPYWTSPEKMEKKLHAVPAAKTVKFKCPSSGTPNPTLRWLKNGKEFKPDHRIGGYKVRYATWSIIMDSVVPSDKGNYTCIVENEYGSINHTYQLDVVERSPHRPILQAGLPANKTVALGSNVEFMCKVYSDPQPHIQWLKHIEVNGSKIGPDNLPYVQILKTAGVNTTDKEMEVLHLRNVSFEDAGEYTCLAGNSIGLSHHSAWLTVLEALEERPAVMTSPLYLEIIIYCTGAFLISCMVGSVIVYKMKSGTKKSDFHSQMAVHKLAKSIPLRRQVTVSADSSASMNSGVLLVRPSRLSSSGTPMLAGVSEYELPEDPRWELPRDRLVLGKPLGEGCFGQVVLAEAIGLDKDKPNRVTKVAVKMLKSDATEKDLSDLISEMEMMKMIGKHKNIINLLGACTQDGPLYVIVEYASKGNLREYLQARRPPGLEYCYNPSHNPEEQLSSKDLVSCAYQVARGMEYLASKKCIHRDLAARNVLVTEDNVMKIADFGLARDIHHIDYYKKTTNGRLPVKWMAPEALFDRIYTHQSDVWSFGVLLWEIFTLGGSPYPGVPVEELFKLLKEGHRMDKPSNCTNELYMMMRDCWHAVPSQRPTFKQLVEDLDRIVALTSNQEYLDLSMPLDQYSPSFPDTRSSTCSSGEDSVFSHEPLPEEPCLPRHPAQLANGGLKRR
Lab note: anything with phosphorylation enrichment at or over 0.6 counts as condition met; the rest go in condition not met.

LNEVGYDDIGG [VCP_Y203]    condition met
GLAKEYIDPET [CSNK1G2_Y195]    condition not met
ILGRFYETSSI [PAX2_Y73_G76S_YF]    condition not met
FSVDSYDSSVR [KCNQ1_Y461_G460S]    condition not met
FASVEYQEALS [GALNS_Y461_A459V]    condition not met

Query: Quick check, phosphorylation enrichment >= 0.6? IGCHAYGDQYR [IDH1_Y135_R132C]
Reply: condition met

---

molecular target: Jak2 (UniProt O60674); assay: phosphorylation enrichment, bacterial display (enrichment ratio); higher = better substrate or ligand; peptides without Tyr show the background
Sequence (O60674 whole entry, looked up): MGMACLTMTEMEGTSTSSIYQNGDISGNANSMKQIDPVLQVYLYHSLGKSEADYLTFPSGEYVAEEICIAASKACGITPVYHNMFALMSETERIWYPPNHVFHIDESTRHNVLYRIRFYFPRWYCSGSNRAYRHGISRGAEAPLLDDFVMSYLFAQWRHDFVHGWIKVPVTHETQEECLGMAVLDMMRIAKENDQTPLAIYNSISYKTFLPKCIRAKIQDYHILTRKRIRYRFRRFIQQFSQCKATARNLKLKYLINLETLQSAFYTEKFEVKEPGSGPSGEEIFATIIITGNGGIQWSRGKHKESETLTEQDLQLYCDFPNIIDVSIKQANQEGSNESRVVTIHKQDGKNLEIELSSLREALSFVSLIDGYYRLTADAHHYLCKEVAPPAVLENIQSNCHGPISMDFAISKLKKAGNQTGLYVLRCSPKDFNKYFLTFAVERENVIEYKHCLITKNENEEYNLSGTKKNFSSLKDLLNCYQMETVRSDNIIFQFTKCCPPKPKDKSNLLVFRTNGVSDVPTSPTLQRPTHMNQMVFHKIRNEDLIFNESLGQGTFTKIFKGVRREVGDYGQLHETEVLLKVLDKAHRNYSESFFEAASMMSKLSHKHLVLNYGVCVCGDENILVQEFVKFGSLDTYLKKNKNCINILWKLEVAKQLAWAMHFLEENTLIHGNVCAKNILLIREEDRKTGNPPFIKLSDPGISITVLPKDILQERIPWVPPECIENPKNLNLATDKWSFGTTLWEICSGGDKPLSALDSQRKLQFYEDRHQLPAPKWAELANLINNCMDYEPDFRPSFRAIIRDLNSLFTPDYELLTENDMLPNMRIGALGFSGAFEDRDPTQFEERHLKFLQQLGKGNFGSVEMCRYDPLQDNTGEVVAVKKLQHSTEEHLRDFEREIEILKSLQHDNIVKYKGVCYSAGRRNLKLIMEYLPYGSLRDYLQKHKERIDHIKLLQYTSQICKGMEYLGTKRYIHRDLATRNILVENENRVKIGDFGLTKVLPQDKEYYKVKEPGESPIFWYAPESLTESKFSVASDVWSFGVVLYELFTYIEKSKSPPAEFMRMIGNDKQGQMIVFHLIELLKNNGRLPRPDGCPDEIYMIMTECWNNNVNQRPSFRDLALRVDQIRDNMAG
Classes by phosphorylation enrichment: bottom bin (below 0.8), middle bin (0.8 to below 1), top bin (1 or more)

Query: Into which bin does this sequence go? ANNEFYFQVCA
Reply: top bin

Query: Into which bin does this sequence go? QDDYSYPSRQM [LDLR_Y847_G844D]
Reply: top bin

Query: Into which bin does this sequence go? GKAFIYASHIV [ZNF573_Y229]
Reply: middle bin

Query: Into which bin does this sequence go? GKGGSYSQAAC [HLA-B_Y344]
Reply: bottom bin

Query: Into which bin does this sequence go? YQASYYRRGDR [LTK_Y677_R673Q]
Reply: bottom bin

---

target: Fyn (UniProt P06241); assay: phosphorylation enrichment, bacterial display (enrichment ratio); higher = better substrate or ligand; peptides without Tyr show the background
Sequence (P06241 whole entry, looked up): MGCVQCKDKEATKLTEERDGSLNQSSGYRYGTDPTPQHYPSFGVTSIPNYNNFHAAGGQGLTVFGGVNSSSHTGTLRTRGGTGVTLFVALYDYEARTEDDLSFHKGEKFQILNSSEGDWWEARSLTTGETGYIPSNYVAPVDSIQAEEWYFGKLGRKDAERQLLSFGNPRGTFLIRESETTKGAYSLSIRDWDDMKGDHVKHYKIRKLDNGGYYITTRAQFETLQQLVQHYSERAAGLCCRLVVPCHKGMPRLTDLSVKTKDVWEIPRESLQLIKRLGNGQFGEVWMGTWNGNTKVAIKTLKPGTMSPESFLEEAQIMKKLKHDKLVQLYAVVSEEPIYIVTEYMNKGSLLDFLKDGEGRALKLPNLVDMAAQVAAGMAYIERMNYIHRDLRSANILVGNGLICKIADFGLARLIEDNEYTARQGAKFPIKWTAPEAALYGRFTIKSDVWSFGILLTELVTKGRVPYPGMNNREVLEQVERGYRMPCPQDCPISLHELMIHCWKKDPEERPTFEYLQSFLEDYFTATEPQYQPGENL
Lab note: anything with phosphorylation enrichment at or over 0.5 counts as 1; the rest go in -1.

The following sequences have reported results that may help.
SMAKFYASEIA [ACADSB_Y373_YF]    -1
MKGDFYRFLAE [YWHAG_Y131_YF]    -1
RPSELYYSKIG [SMG1_Y2253]    1
NLSVRYDSSLK [ABCC8_Y1353]    -1
HLVSEYQQYQD [TUBB3_Y422_D417H]    1

Query: Quick check, phosphorylation enrichment >= 0.5? FSKRIYKGMVA [PCDH15_Y931]
Reply: -1

Query: Quick check, phosphorylation enrichment >= 0.5? TRLAQYDSNSK [BMX_Y216_S212R]
Reply: -1

Query: Quick check, phosphorylation enrichment >= 0.5? GYSRHCEDGYP [CTNND1_Y217_Y217C]
Reply: -1

Query: Quick check, phosphorylation enrichment >= 0.5? TGDFGYRTPGY [TNS2_Y668_A670T]
Reply: -1

Query: Quick check, phosphorylation enrichment >= 0.5? VECRVYAEDPY [PCCA_Y401]
Reply: 1

Query: Quick check, phosphorylation enrichment >= 0.5? INSLKYAYNVS [EIF2B5_Y583_I587V]
Reply: 1

Query: Quick check, phosphorylation enrichment >= 0.5? RSPLRYTSILT [OR51B6_Y130]
Reply: 1

Query: Quick check, phosphorylation enrichment >= 0.5? RLLRGHDQSAY [HLA-C_Y137_Y137H]
Reply: -1

---

biological target: Fyn (UniProt P06241); assay: phosphorylation enrichment, bacterial display (enrichment ratio); higher = better substrate or ligand; peptides without Tyr show the background
Assignment: determine reported phosphorylation enrichment for the given sequences.
Give bare numbers.

Provide phosphorylation enrichment values for the following items, in order.
1. AFLQTYAHEVS [PCDHGA5_Y753_S754A]
2. SKDQIYPMKLK [RANBP17_Y823]

Reply:
[0.49, 0.417]
